# Tested on: HCT116
# PROCEDURE TEXT: Antiproliferation CCK-8 assay, HCT116
# Assay type: cell-based
# STATED CONDITIONS: Homo sapiens, HCT-116; CCK-8; read-out: IC50 HCT116 cells
MEASURE: IC50 (nM)
One number for each entry, in nM.

Fill in: IC50 on HCT116, entry Cc1c(C(=O)Nc2ccc(Oc3ccnc(Nc4cccc(OC5CCN(C)CC5)c4)n3)cc2)c(=O)n(-c2ccccc2)n1C [compound 17c]
460

====

# PROCEDURE TEXT: Pharmacokinetics in SD rats
# Format: in vivo
# STATED CONDITIONS: both sexes, rat, plasma, iv; SD rats, i.v., 2 mg/kg; read-out: CL_obs
MEASURE: clearance (mL/min/kg)
Numbers only, in mL/min/kg.

Entry Cc1c(C(=O)Nc2ccc(Oc3ccnc(Nc4cccc(OC5CCN(C)CC5)c4)n3)cc2)c(=O)n(-c2ccccc2)n1C [compound 17c] needs its clearance filled in; supply it.
16.4
